Ref: ChEMBL document CHEMBL3784939

assay text: Cytotoxicity against human HCT116 cells after 72 hrs by MTT assay
Assay type: functional, cell-based
details: HCT-116, 72 h
Here, each record is paired with measured IC50 data.

compound	IC50
COC(=O)C(CO)c1ccc(OC)cc1 (stereo unspecified)	> 0.01 µg/mL
COC(=O)C(COC(=O)c1ccccc1)c1ccccc1 (stereo unspecified)	> 0.01 µg/mL
COC(=O)C(C=O)c1ccccc1 (stereo unspecified)	> 0.01 µg/mL
CCOC(=O)C(COC(=O)c1ccccc1)c1ccc(C(F)(F)F)cc1 (stereo unspecified)	> 0.01 µg/mL
COC(=O)C(C=O)c1ccc(C)cc1 (stereo unspecified)	> 0.01 µg/mL
COC(=O)C(/C=N/NC(N)=S)c1ccccc1 (stereo unspecified)	0.00321 µg/mL
CCOC(=O)C(/C=N/OC)c1ccc(F)cc1 (stereo unspecified)	> 0.01 µg/mL
COC(=O)C(C=O)c1ccc(OC)cc1 (stereo unspecified)	> 0.01 µg/mL

Given the compound CCOC(=O)C(/C=N/NC(N)=S)c1ccc(C(F)(F)F)cc1 (stereo unspecified) , what is its reported IC50?
0.00367 µg/mL

Given the compound CCOC(=O)C(C=O)c1ccc(F)cc1 (stereo unspecified) , what is its reported IC50?
> 0.01 µg/mL

Given the compound COC(=O)C(CO)c1ccccc1 (stereo unspecified) , what is its reported IC50?
> 0.01 µg/mL

Given the compound CCOC(=O)C(COC(=O)/C=C/c1ccc(OC)c(OC)c1)c1ccc(F)cc1 (stereo unspecified) , what is its reported IC50?
> 0.01 µg/mL

----------
assay text: Inhibition of alpha glucosidase (unknown origin) preincubated for 15 mins followed by p-nitrophenyl-alpha-D-glucopyranoside addition measured after 30 mins by spectrophotometric analysis
Design: species or system Homo sapiens
recorded metric: IC50

Recorded results for 2 compounds are shown here.
compound	IC50
COC(=O)C(C=O)c1ccc(C)cc1 (stereo unspecified)	185 µM
COC(=O)C(CO)c1ccc(C)cc1 (stereo unspecified)	> 200 µM

Given the compound COC(=O)C(C=O)c1ccccc1 (stereo unspecified) , what is its reported IC50?
> 200 µM

Given the compound COC(=O)C(CO)c1ccccc1 (stereo unspecified) , what is its reported IC50?
186 µM

Given the compound COC(=O)C(C=O)c1ccc(OC)cc1 (stereo unspecified) , what is its reported IC50?
> 200 µM

Given the compound COC(=O)C(COC(=O)c1ccccc1)c1ccccc1 (stereo unspecified) , what is its reported IC50?
> 200 µM

Given the compound COC(=O)C(/C=N/NC(N)=S)c1ccc(OC)cc1 (stereo unspecified) , what is its reported IC50?
> 200 µM

Given the compound COC(=O)C(COC(=O)c1ccccc1OC(C)=O)c1ccccc1 (stereo unspecified) , what is its reported IC50?
> 200 µM

----------
assay text: Inhibition of alpha glucosidase (unknown origin) at 100 uM preincubated for 15 mins followed by p-nitrophenyl-alpha-D-glucopyranoside addition measured after 30 mins by spectrophotometric analysis
details: Homo sapiens
recorded metric: inhibition

Recorded results for 3 compounds are shown here.
compound	inhibition
COC(=O)C(CO)c1ccc(C)cc1 (configuration not stated)	14.6%
COC(=O)C(COC(=O)c1ccccc1)c1ccccc1 (configuration not stated)	12.9%
CCOC(=O)C(/C=N/NC(N)=S)c1ccc(F)cc1 (configuration not stated)	65.3%

Given the compound COC(=O)C(C=O)c1ccc(OC)cc1 (configuration not stated) , what is its reported inhibition?
18.4%

Given the compound `OC[C@H]1NC[C@H](O)[C@@H](O)[C@@H]1O` , what is its reported inhibition?
52.5%

Given the compound COC(=O)C(/C=N/NC(N)=S)c1ccc(OC)cc1 (configuration not stated) , what is its reported inhibition?
14.4%

----------
assay text: Noncompetitive inhibition of alpha glucosidase (unknown origin) preincubated for 15 mins followed by p-nitrophenyl-alpha-D-glucopyranoside addition measured after 30 mins by Lineweaver-Burk plot analysis
Set-up: species or system Homo sapiens
recorded metric: pKi
In simple prose, pKi is minus the logarithm base ten of a concentration in moles per litre.

Given the molecule CCOC(=O)C(/C=N/NC(N)=S)c1ccc(F)cc1 (stereo unspecified) , what is its reported pKi?
4.18

----------
Test system: NCI-H1650
assay text: Cytotoxicity against human NCI-H1650 cells after 72 hrs by MTT assay
Format: functional, cell-based
details: NCI-H1650, 72 h
Here, each record is paired with measured IC50 data.

Recorded results for 2 molecules are shown here.
molecule	result
CCOC(=O)C(C=O)c1ccc(F)cc1 (stereo unspecified)	> 0.01 mg/L
COC(=O)C(COC(=O)c1ccccc1)c1ccccc1 (stereo unspecified)	> 0.01 mg/L

Given the molecule CCOC(=O)C(CO)c1ccc(F)cc1 (stereo unspecified) , what is its reported IC50?
> 0.01 mg/L

Given the molecule CCOC(=O)C(C=O)c1ccc(C(F)(F)F)cc1 (stereo unspecified) , what is its reported IC50?
> 0.01 mg/L

Given the molecule CCOC(=O)C(/C=N/NC(N)=S)c1ccc(C(F)(F)F)cc1 (stereo unspecified) , what is its reported IC50?
0.00805 mg/L

----------
System: Rattus norvegicus
assay text: Hypoglycemic activity in diabetic rat model assessed as decrease in blood glucose level at 360 mg/kg, ig administered for 12 days measured on third day of compound dosing by glucometer relative to control
Format: functional
details: po, 288 h
Here, each record is paired with measured inhibition in vivo at 360 mg/kg data.
Report the value in % with no unit label.

compound	unit name	inhibition in vivo at 360 mg/kg
CCOC(=O)C(/C=N/NC(N)=S)c1ccc(F)cc1 (centres undefined)	%	10.3
CCOC(=O)C(COC(=O)/C=C/c1ccc(OC)c(OC)c1)c1ccc(F)cc1 (centres undefined)	%	7.86

Item COC(=O)C(COC(=O)/C=C/c1ccc(OC)c(OC)c1)c1ccccc1 (centres undefined) with Rattus norvegicus - inhibition in vivo at 360 mg/kg?
7.86

Item COC(=O)C(CO)c1ccc(C)cc1 (centres undefined) with Rattus norvegicus - inhibition in vivo at 360 mg/kg?
7.86

----------
Here, each record is paired with measured inhibition data.
assay text: Inhibition of alpha glucosidase (unknown origin) at 100 uM preincubated for 15 mins followed by p-nitrophenyl-alpha-D-glucopyranoside addition measured after 30 mins by spectrophotometric analysis
details: Homo sapiens

Recorded results for 3 compounds are shown here.
compound	inhibition
CCOC(=O)C(COC(=O)c1ccccc1)c1ccc(F)cc1 (stereo not drawn)	27.3%
CCOC(=O)C(C=O)c1ccc(F)cc1 (stereo not drawn)	20.4%
COC(=O)C(C=O)c1ccccc1 (stereo not drawn)	15.3%

Could you now look at the following compound, please?
Given the compound CCOC(=O)C(COC(=O)/C=C/c1ccc(OC)c(OC)c1)c1ccc(C(F)(F)F)cc1 (stereo not drawn) , what is its reported inhibition?
29.9%

----------
assay text: Inhibition of alpha glucosidase (unknown origin) at 100 uM preincubated for 15 mins followed by p-nitrophenyl-alpha-D-glucopyranoside addition measured after 30 mins by spectrophotometric analysis
details: Homo sapiens
Calls of active or inactive are those of the source. The rule behind the calls is not given here.
recorded metric: inhibition

Recorded results for 8 molecules are shown here.
molecule	inhibition
CCOC(=O)C(COC(=O)c1ccccc1OC(C)=O)c1ccc(C(F)(F)F)cc1 (configuration not stated)	14.1%
COC(=O)C(/C=N/NC(N)=S)c1ccccc1 (configuration not stated)	19.8%
COC(=O)C(COC(=O)/C=C/c1ccc(OC)c(OC)c1)c1ccccc1 (configuration not stated)	11.1%
CCOC(=O)C(C=O)c1ccc(C(F)(F)F)cc1 (configuration not stated)	inactive
CCOC(=O)C(CO)c1ccc(C(F)(F)F)cc1 (configuration not stated)	inactive
COC(=O)C(CO)c1ccccc1 (configuration not stated)	28.7%
CCOC(=O)C(COC(=O)c1ccccc1)c1ccc(C(F)(F)F)cc1 (configuration not stated)	16.8%
COC(=O)C(/C=N/NC(N)=S)c1ccc(C)cc1 (configuration not stated)	20.8%

Given the molecule CCOC(=O)C(/C=N/NC(N)=S)c1ccc(C(F)(F)F)cc1 (configuration not stated) , what is its reported inhibition?
34%

Given the molecule COC(=O)C(C=O)c1ccc(C)cc1 (configuration not stated) , what is its reported inhibition?
29.3%

Given the molecule CCOC(=O)C(/C=N/OC)c1ccc(F)cc1 (configuration not stated) , what is its reported inhibition?
inactive

Given the molecule COC(=O)C(COC(=O)c1ccccc1OC(C)=O)c1ccccc1 (configuration not stated) , what is its reported inhibition?
13.7%

----------
assay text: Inhibition of alpha glucosidase (unknown origin) preincubated for 15 mins followed by p-nitrophenyl-alpha-D-glucopyranoside addition measured after 30 mins by spectrophotometric analysis
Design: species or system Homo sapiens
recorded metric: IC50

Recorded results for 3 molecules are shown here.
molecule	IC50
CCOC(=O)C(COC(=O)c1ccccc1)c1ccc(F)cc1 (stereo unspecified)	> 200 µM
COC(=O)C(COC(=O)/C=C/c1ccc(OC)c(OC)c1)c1ccccc1 (stereo unspecified)	> 200 µM
CCOC(=O)C(C=O)c1ccc(F)cc1 (stereo unspecified)	183 µM

Given the molecule COC(=O)C(/C=N/NC(N)=S)c1ccccc1 (stereo unspecified) , what is its reported IC50?
> 200 µM

Given the molecule CCOC(=O)C(/C=N/NC(N)=S)c1ccc(C(F)(F)F)cc1 (stereo unspecified) , what is its reported IC50?
137 µM

Given the molecule CCOC(=O)C(COC(=O)/C=C/c1ccc(OC)c(OC)c1)c1ccc(C(F)(F)F)cc1 (stereo unspecified) , what is its reported IC50?
191 µM
